Assayed Target: human serotonin transporter (SERT) (Homo sapiens)
Sequence (P31645 whole entry): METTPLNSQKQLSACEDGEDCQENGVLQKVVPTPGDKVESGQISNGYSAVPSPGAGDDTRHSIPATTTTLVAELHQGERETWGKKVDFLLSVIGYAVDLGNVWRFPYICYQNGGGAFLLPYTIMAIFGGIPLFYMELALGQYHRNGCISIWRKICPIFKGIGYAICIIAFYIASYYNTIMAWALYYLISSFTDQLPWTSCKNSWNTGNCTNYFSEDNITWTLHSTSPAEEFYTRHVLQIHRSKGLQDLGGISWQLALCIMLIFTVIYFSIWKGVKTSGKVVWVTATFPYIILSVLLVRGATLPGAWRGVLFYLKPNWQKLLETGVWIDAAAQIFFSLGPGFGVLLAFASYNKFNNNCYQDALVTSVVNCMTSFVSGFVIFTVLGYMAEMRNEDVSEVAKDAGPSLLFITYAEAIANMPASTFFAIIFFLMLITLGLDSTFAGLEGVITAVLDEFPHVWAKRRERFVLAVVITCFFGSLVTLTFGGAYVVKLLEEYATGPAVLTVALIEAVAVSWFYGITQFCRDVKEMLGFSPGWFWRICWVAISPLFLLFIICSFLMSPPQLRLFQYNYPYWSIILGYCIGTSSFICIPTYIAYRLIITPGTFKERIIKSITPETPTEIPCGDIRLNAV
Method Description: NIH-PDSP transporter binding assay, SERT (3H-Citalopram)
Condition Context: Table 7, Homologues Type I (Aminoethane Derivatives)
Endpoint Name: pKi
Numbers only, as −log10 of the molar value.

{"Compound": "O=C(CCCN1CCN(CC(Oc2ccc(F)cc2)c2ccccc2)CC1)c1ccc(F)cc1 (stereo not drawn) [Compound 14b]", "pKi": 5.95}
{"Compound": "Fc1ccc2c(C3CCN(CC(Oc4ccc(C(F)(F)F)cc4)c4ccccc4)CC3)noc2c1 (stereo not drawn) [Compound 13b]", "pKi": 5.78}
{"Compound": "FC(F)(F)c1ccc(OC(CN2CCN(c3cccc(Cl)c3)CC2)c2ccccc2)cc1 (stereo not drawn)", "pKi": 5.31}
{"Compound": "FC(F)(F)c1ccc(OC(CN2CCN(c3cccc(C(F)(F)F)c3)CC2)c2ccccc2)cc1 (stereo not drawn)", "pKi": 5.35}
{"Compound": "O=C(CCCN1CCN(CC(Oc2ccc(C(F)(F)F)cc2)c2ccccc2)CC1)c1ccc(F)cc1 (stereo not drawn) [Compound 15b]", "pKi": 5.86}

From here, focus on the item given below.
Indicate its recorded pKi; the compound in question is CN1CCN(CC(Oc2ccc(C(F)(F)F)cc2)c2ccccc2)CC1 (stereo not drawn)
5.44
